Reference source for all entries: patent US5972946A

- tested system: peripheral (ω3) benzodiazepine (BZ) receptor (Rattus norvegicus, UniProt P16257)
property: pIC50
Friendly reminder that pIC50 comes from taking -log10 of the concentration in mol/L.

Recorded pIC50, per entry:
1) CCCN(CCC)C(=O)COc1nc(-c2ccc(F)cc2)nc(C)c1C	9.28
2) CCCN(CCC)C(=O)CNc1nc(-c2ccc(C(F)(F)F)cc2)nc(C)c1C	9.64
3) CCN(C(=O)COc1nc(-c2ccc(N)cc2)nc(C)c1C)c1ccccc1	8.29
4) CCCN(CCC)C(=O)C(CO)Nc1nc(-c2ccccc2)nc2c1CCCC2 (centres unmarked)	8.97

Now take the following compound into account.
### Prompt Suppose we examine the compound CCCN(CCC)C(=O)CNc1nc(-c2ccccc2)ncc1CO ; what pIC50 value has been reported?
### Response 8.36
